Reference source for all entries: patent US6809119B2

Molecular target: rat BCAT cytosolic form (rrBCATc) (Rattus norvegicus, UniProt P54690)
Construct: inferred from purification on a Ni-charged chelating column with imidazole elution
Sequence (P54690 whole entry): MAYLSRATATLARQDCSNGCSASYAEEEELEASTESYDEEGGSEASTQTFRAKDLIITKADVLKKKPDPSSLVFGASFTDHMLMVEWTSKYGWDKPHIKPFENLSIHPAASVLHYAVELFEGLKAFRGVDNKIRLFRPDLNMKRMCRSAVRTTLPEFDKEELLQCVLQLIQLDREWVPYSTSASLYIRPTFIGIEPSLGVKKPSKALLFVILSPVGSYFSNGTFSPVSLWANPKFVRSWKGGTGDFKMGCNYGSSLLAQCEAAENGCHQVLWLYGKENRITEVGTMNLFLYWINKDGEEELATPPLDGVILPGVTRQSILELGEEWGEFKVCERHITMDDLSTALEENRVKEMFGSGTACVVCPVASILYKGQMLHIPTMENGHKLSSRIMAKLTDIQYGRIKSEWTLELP
Assay: In vitro coupled enzyme assay, rat BCAT cytosolic form
Conditions: inhibition of recombinant rat BCATc; coupled glutamate dehydrogenase/NADH assay, 37° C., pH 7.8
pIC50: −log10 of the molar value.
ASSAY_METRIC: pIC50

{"SMILES_DATA": "O=C(NNS(=O)(=O)c1ccccc1)c1ccc(Oc2ccccc2)cc1", "NUMERIC_READOUT": 5.82}
{"SMILES_DATA": "O=C(NNS(=O)(=O)c1ccccc1)c1ccc(C#CC2(O)CCCCC2)cc1", "NUMERIC_READOUT": 5.66}
{"SMILES_DATA": "O=C(NNS(=O)(=O)c1ccccc1OC(F)(F)F)c1ccc(Oc2ccccc2)cc1", "NUMERIC_READOUT": 5.54}

1 = O=C(NNS(=O)(=O)c1ccccc1Cl)c1ccc(Oc2ccccc2)cc1
2 = O=C(NNS(=O)(=O)c1ccccc1)c1cccc(Oc2ccccc2)c1
3 = Nc1ccc(C(=O)NNS(=O)(=O)c2ccccc2)cc1
Task field, ranking: reported pIC50, descending order. Answer with the labels in sequence, matching the requested order.
2, 1, 3
(2: 5.66, 1: 5.23, 3: 4.55)

====

Target: human Branched Chain Amino Acid Aminotransferase cytosolic form (hBCATc) (Homo sapiens, UniProt P54687)
Construct: inferred from purification on a Ni-charged chelating column with imidazole elution
Sequence (P54687 whole entry): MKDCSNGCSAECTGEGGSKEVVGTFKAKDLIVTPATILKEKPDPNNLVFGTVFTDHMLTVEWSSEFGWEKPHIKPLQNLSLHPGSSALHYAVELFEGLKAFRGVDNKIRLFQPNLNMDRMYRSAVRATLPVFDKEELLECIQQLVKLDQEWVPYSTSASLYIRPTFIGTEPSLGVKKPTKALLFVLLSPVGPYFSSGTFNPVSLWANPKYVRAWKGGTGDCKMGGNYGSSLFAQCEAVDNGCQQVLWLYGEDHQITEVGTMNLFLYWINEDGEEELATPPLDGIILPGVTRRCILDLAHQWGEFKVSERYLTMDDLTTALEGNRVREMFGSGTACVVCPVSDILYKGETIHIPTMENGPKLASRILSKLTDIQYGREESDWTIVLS
Experiment: In vitro coupled enzyme assay, human BCAT cytosolic form
Conditions: inhibition of recombinant human BCATc; coupled glutamate dehydrogenase/NADH assay, 37° C., pH 7.8; read-out: rhBCATc
ASSAY_METRIC: IC50 (µM)

{"SMILES_DATA": "Nc1ccc(C(=O)NNS(=O)(=O)c2ccccc2)cc1", "IC50 / µM": 60}
{"SMILES_DATA": "Cc1ccc(S(=O)(=O)NNC(=O)c2ccc(Oc3ccccc3)cc2)cc1[N+](=O)[O-]", "IC50 / µM": 110}
{"SMILES_DATA": "O=C(NNS(=O)(=O)c1ccccc1C(F)(F)F)c1ccc(Oc2ccccc2)cc1", "IC50 / µM": 17}
{"SMILES_DATA": "CS(=O)(=O)Nc1ccc(C(=O)NNS(=O)(=O)c2ccccc2)cc1", "IC50 / µM": 7}
{"SMILES_DATA": "O=C(NNS(=O)(=O)c1ccccc1)c1ccc(C#Cc2ccccc2)cc1", "IC50 / µM": 27.6}
{"SMILES_DATA": "O=C(NNS(=O)(=O)c1ccccc1OC(F)(F)F)c1ccc(Oc2ccccc2)cc1", "IC50 / µM": 28}

I = CCCc1ccc(S(=O)(=O)Nc2ccc(C(=O)NNS(=O)(=O)c3ccccc3)cc2)cc1
II = O=C(NNS(=O)(=O)c1ccccc1)c1ccc(NS(=O)(=O)c2c(Cl)cc(Cl)cc2Cl)cc1
Please indicate which entry, I or II , has the lower recorded IC50 value. Identify your pick by its label.
II

====

Target: human Branched Chain Amino Acid Aminotransferase cytosolic form (hBCATc) (Homo sapiens, UniProt P54687)
Construct: inferred from purification on a Ni-charged chelating column with imidazole elution
Experiment: In vitro coupled enzyme assay, human BCAT cytosolic form
Conditions: inhibition of recombinant human BCATc; coupled glutamate dehydrogenase/NADH assay, 37° C., pH 7.8; read-out: rhBCATc
pIC50: −log10 of the molar value.
ASSAY_METRIC: pIC50

These solved cases illustrate the format of a correct answer.
{"MOLECULE": "CCCCc1ccc(S(=O)(=O)Nc2ccc(C(=O)NNS(=O)(=O)c3ccccc3)cc2)cc1 [Example 12]", "pIC50": 5.34}
{"MOLECULE": "Cc1ccc(S(=O)(=O)Nc2ccc(C(=O)NNS(=O)(=O)c3ccccc3)cc2)cc1 [Example 9]", "pIC50": 5.42}
{"MOLECULE": "O=C(NNS(=O)(=O)c1ccccc1)c1ccc(NS(=O)(=O)c2ccc(Oc3ccccc3)cc2)cc1 [Example 6]", "pIC50": 5.52}
{"MOLECULE": "Cc1cccc(S(=O)(=O)Nc2ccc(C(=O)NNS(=O)(=O)c3ccccc3)cc2)c1 [Example 17]", "pIC50": 5.64}
{"MOLECULE": "CC(C)(C)c1ccc(C(=O)NNS(=O)(=O)c2ccccc2)cc1 [Example 24]", "pIC50": 4.24}
{"MOLECULE": "CC(C)(C)C#Cc1ccc(C(=O)NNS(=O)(=O)c2ccccc2)cc1 [Example 37]", "pIC50": 4.46}
{"MOLECULE": "O=C(NNS(=O)(=O)c1cccc(Br)c1)c1ccc(Oc2ccccc2)cc1 [Example 19]", "pIC50": 4.55}
{"MOLECULE": "O=C(NNS(=O)(=O)c1ccccc1)c1ccc(NS(=O)(=O)c2ccc(F)cc2)cc1 [Example 14]", "pIC50": 5.32}
{"MOLECULE": "O=C(NNS(=O)(=O)c1ccccc1)c1ccc(CCc2ccccc2)cc1 [Example 33]", "pIC50": 4.84}
{"MOLECULE": "O=C(NNS(=O)(=O)c1ccccc1)c1ccccc1Oc1ccccc1 [Example 27]", "pIC50": 4.30}

a = COc1ccc(S(=O)(=O)Nc2ccc(C(=O)NNS(=O)(=O)c3ccccc3)cc2)cc1 [Example 30]
b = O=C(NNS(=O)(=O)c1ccccc1)c1ccc(C#CCC2CCCCC2)cc1 [Example 34]
c = O=C(NNS(=O)(=O)c1ccccc1)c1ccc(CCC2(O)CCCCC2)cc1 [Example 36]
d = CC(C)(C)CCc1ccc(C(=O)NNS(=O)(=O)c2ccccc2)cc1 [Example 38]
// ranking: key=pIC50, reverse=True Form entry: ranked labels (order as requested).
a, d, c, b

a = O=C(NNS(=O)(=O)c1ccccc1)c1ccc(OCc2ccccc2)cc1 [Example 29]
b = O=C(NNS(=O)(=O)c1ccccc1)c1ccc(NS(=O)(=O)c2ccc(C(F)(F)F)cc2)cc1 [Example 4]
c = O=C(NNS(=O)(=O)c1ccccc1)c1ccc(C#CC2(O)CCCCC2)cc1 [Example 35]
Hey, can you sort those molecules up there by pIC50, smallest first? Please list the labels according to the requested order.
c, a, b
(c: 4.36, a: 4.59, b: 5.22)
